# Species: Rattus norvegicus
# TEST: Open TG-GATES - Regimen: Single
# Format: toxicity, organism-based, Sprague-Dawley
# Design: regimen Single, gender Male, age 6 weeks
# CONDITION SUMMARY: in vivo, po, 1000 mg/kg, 3 h, tissue Blood, route gavage, dose level High
ENDPOINT NAME: Ret (%)
Give just the numeric value; % need not be written.

Examples from the recorded data:
CCOC(=O)CCC(=O)O[C@H]1[C@H](O[C@@H]2[C@@H](C)[C@H](O[C@H]3C[C@@](C)(OC)[C@@H](O)[C@H](C)O3)[C@@H](C)C(=O)O[C@H](CC)[C@@](C)(O)[C@H](O)[C@@H](C)C(=O)[C@H](C)C[C@@]2(C)O)O[C@H](C)C[C@@H]1N(C)C [ERYTHROMYCIN ETHYLSUCCINATE]	8.2
COC1=CC(=O)C[C@@H](C)[C@]12Oc1c(Cl)c(OC)cc(OC)c1C2=O	8.3
NC(N)=Nc1nc(CSCCC(N)=NS(N)(=O)=O)cs1	7.6
COc1ccc2[nH]c([S+]([O-])Cc3ncc(C)c(OC)c3C)nc2c1 (stereo not given)	6.8

Would you kindly look at the next entry?
Problem: Recorded Ret of CC(C)OC(=O)C(C)(C)Oc1ccc(C(=O)c2ccc(Cl)cc2)cc1 [FENOFIBRATE] , please.
Result: 10.6
